Value source: patent US20240190821A1

Molecular target: DCAF15-RBM39 ternary complex (Homo sapiens, UniProt Q14498+Q66K64)
Construct: (RRM2)
Sequence (Q66K64 whole entry): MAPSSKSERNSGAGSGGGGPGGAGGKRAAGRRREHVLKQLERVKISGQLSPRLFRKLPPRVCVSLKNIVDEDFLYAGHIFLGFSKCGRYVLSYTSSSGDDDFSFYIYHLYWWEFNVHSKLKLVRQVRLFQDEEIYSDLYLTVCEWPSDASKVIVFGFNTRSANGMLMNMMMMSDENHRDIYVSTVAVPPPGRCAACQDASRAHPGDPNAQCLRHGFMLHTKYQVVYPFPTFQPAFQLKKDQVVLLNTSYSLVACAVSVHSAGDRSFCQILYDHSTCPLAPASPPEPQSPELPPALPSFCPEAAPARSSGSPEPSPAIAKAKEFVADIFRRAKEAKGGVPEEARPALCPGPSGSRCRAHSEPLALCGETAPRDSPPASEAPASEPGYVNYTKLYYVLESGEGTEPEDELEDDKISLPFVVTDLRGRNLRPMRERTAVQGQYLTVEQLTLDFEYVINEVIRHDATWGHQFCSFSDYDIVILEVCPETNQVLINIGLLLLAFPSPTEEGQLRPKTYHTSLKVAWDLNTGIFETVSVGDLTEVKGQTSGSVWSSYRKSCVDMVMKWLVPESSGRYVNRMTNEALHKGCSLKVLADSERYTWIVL
Sequence (Q14498 250-328 limits assumed): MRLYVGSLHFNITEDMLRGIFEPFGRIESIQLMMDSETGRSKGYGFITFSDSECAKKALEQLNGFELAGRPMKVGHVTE
Sequence (Q16531 whole entry partner): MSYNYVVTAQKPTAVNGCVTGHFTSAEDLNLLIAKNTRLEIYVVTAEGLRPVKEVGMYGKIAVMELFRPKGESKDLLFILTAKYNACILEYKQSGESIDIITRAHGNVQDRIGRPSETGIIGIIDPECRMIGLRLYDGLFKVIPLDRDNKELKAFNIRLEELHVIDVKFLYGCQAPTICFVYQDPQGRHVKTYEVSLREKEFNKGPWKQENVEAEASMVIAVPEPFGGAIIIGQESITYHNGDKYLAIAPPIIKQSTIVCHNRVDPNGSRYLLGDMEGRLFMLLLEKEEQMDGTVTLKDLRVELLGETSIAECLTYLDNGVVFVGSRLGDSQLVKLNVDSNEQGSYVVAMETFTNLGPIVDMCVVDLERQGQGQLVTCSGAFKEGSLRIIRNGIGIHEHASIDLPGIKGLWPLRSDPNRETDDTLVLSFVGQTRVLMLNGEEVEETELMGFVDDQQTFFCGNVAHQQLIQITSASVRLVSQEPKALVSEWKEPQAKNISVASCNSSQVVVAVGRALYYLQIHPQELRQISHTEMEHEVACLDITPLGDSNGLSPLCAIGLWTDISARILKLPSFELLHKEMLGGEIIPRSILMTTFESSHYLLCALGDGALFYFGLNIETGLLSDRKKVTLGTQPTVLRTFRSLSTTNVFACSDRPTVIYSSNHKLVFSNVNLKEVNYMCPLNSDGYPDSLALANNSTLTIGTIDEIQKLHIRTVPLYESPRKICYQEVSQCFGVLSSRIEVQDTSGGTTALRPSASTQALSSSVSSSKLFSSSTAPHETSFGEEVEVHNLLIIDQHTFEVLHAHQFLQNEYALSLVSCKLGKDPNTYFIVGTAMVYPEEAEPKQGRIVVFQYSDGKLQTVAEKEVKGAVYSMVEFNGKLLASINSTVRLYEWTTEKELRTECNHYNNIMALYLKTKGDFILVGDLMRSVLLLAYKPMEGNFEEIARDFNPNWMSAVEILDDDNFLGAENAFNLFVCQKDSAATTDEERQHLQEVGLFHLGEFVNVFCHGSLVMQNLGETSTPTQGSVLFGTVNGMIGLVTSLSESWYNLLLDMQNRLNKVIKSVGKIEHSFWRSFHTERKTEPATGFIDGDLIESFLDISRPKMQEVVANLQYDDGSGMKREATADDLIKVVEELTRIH
Experiment: Compound-induced DCAF15-RBM39 ternary complex formation, AlphaLISA
Format: biochemical
Details: AlphaLISA, His-tagged DCAF15 complex and biotin-carrying RBM39; read-out: Ternary-RBM39 (RRM2) EC50
pEC50: −log10 of the molar value.
measurement-type: pEC50

Answered examples (3):
molecule=O=S(=O)(Nc1ccc(Cl)c2c(Cl)c[nH]c12)c1ccc(S(=O)(=O)N2CCNCC2)c(F)c1 result="> 6.00"
molecule="Nc1ccc(S(=O)(=O)Nc2cnc3c(Cl)cccc3n2)cc1 [CQS, cloroquinoxaline sulfonamide, reference compound]" result="> 5.30"
molecule="CCC(NS(=O)(=O)c1ccc(S(=O)(=O)Nc2ccc(Cl)c3c(Cl)c[nH]c23)cc1)c1ccc2c(c1)OCCO2 (stereo not shown)" result="> 4.70"

Moving on to the next molecule.
Query: What value of measured pEC50 is listed for "Cc1ccc(NS(=O)(=O)c2ccc(S(=O)(=O)N(C)C3CNC3)cc2)c2[nH]cc(C#N)c12" ?
Reply: > 6.00
